B1: library; a variant is named by its letters at N, in order (parent)
chain: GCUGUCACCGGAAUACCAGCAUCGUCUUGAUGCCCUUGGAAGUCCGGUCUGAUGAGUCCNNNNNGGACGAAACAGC

Variants of: B1
Experiment: normalized RNA/DNA level with ligand (relative to sTRSVctl = 100) (log10 (% of sTRSVctl)); higher = less ribozyme self-cleavage, higher mRNA level
Assay Conditions: ligand concentration (+) RNA-Seq: 5 mM, HEK293T, reporter: mCherry (pCS4076), ligand present: yes
Measured Endpoint: normalized RNA/DNA level with ligand (log10)
Write no unit; give the number alone.

What value of normalized RNA/DNA level with ligand (log10) has been recorded for this entry: GCUGUCACCGGAAUACCAGCAUCGUCUUGAUGCCCUUGGAAGUCCGGUCUGAUGAGUCCAUGUUGGACGAAACAGC
1.93

What value of normalized RNA/DNA level with ligand (log10) has been recorded for this entry: GCUGUCACCGGAAUACCAGCAUCGUCUUGAUGCCCUUGGAAGUCCGGUCUGAUGAGUCCCGAGAGGACGAAACAGC
1.93

What value of normalized RNA/DNA level with ligand (log10) has been recorded for this entry: GCUGUCACCGGAAUACCAGCAUCGUCUUGAUGCCCUUGGAAGUCCGGUCUGAUGAGUCCGCAACGGACGAAACAGC
1.93

What value of normalized RNA/DNA level with ligand (log10) has been recorded for this entry: GCUGUCACCGGAAUACCAGCAUCGUCUUGAUGCCCUUGGAAGUCCGGUCUGAUGAGUCCUCCUGGGACGAAACAGC
2.02

What value of normalized RNA/DNA level with ligand (log10) has been recorded for this entry: GCUGUCACCGGAAUACCAGCAUCGUCUUGAUGCCCUUGGAAGUCCGGUCUGAUGAGUCCAUGUAGGACGAAACAGC
1.97
